// pIC50 lookup, one value per entry
TARGET UNDER TEST: Axl (Homo sapiens)
Construct: endogenous in cells
Sequence (P30530 26-894): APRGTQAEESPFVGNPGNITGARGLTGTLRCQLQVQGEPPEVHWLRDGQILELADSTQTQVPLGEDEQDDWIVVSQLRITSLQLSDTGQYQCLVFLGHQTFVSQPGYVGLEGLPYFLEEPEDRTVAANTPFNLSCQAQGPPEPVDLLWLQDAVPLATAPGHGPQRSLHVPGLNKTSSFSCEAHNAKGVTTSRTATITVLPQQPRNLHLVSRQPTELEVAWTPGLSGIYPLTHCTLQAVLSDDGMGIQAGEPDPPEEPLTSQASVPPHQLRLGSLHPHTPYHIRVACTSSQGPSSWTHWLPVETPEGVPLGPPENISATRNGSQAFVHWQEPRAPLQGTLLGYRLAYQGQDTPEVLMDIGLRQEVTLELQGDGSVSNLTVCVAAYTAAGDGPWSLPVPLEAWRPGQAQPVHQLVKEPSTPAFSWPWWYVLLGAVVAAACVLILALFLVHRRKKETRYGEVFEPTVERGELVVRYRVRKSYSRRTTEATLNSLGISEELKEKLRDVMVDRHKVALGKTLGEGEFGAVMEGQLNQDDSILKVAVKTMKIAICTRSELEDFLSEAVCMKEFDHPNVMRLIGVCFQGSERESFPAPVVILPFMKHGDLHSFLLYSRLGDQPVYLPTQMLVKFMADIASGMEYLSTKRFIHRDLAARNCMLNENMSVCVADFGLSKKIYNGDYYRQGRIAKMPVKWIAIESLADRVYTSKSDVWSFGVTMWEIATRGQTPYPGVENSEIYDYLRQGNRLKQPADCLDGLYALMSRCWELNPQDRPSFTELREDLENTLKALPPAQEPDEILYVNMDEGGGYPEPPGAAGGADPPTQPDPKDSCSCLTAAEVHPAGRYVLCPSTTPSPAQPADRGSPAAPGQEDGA
ASSAY METHOD TEXT: Phospho-Akt In-Cell Western Assay (ability to inhibit Axl activity)
EXPERIMENTAL PARAMETERS: Hela cells, stimulated by Axl-antibody cross-linking, phospho-Akt chemiluminescence normalized to relative cell number
Experimental: The compounds of the invention were tested in the following assay for their ability to inhibit Axl activity. Phospho-Akt In-Cell Western Assay […]
pIC50: −log10 of the molar value.
MEASURE: pIC50

> print(dat)
                                    molecule  measure  reading
 1  CN1CCC(c2ccc(Nc3nc(N)n(-c4ncc5c(n4)C4CCC5C4)n3)cc2)CC1 (stereo not shown)    pIC50   < 4.70
 2  Cc1csc2c(-n3nc(Nc4cnc5c(c4)C4CCC(C5)N4C)nc3N)ncnc12 (stereo not shown)    pIC50   > 6.00
 3  CN1CCN(C2CCN(c3ccc(Nc4nc(N)n(-c5cc(-c6ccccc6)c6c(n5)C5CCN6CC5)n4)cc3F)CC2)CC1    pIC50   > 6.00
 4  Nc1nc(Nc2ccc3c(c2)CCC(N2CCCC2)CC3)nn1-c1cc(-c2ccccc2)c2c(n1)C1CCC2C1 (stereo not shown)    pIC50   > 6.00
 5  Nc1nc(Nc2ccc(N3CCN(C4CCCCCC4)CC3)cc2)nn1-c1ncc2c(n1)C1CCC2C1 (stereo not shown)    pIC50   > 6.00
 6  Cc1csc2c(-n3nc(Nc4ccc5c(c4)CC4CCC(C5)C4N4CCCC4)nc3N)nc(Cl)nc12 (stereo not shown)    pIC50   > 6.00
 7  Nc1nc(Nc2ccc(N3CCC(N4CCCC4)CC3)c(F)c2)nn1-c1cc(-c2cccnc2)c2c(n1)C1CCN2CC1    pIC50   > 6.00
 8  Nc1nc(Nc2ccc(N3CCC(N4CCCC4)CC3)c(F)c2)nn1-c1ncc2c(n1)C1CCC2C1 (stereo not shown)    pIC50   > 6.00
 9  Nc1nc(Nc2ccc(N3CCN(C4CCCCC4)CC3)c(F)c2)nn1-c1cc(-c2ccccc2)c2c(n1)C1CCN2CC1    pIC50   > 6.00
10  Nc1nc(Nc2ccc3c(c2)CCNC3)nn1-c1ncc2c(n1)C1CCC2C1 (stereo not shown)    pIC50   < 4.70
11  COc1cc2ncnc(-n3nc(Nc4ccc5c(c4)CC4CCC(C5)C4N4CCCC4)nc3N)c2cc1OC (stereo not shown)    pIC50   > 6.00
12  Nc1nc(Nc2ccc(N3CCN(C4CC5CCC4C5)CC3)cc2)nn1-c1ncc2c(n1)C1CCC2C1 (stereo not shown)    pIC50   > 6.00
13  Nc1nc(Nc2ccc(N3CCN(CC4CC4)[C@H](C(=O)O)C3)c(F)c2)nn1-c1cc(-c2ccccc2)c2c(n1)C1CCN2CC1    pIC50   > 6.00
